Each entry below carries its reported IC50.
Test system: Th17 cells
measurement-notes: Th17 assay (IL-17 in supernatants of differentiating human naive CD4+ T cells, ELISA)
Assay type: cell-based
conditions: 168 h, Th17 differentiation for seven days with test compound, IL-17 levels in supernatants by ELISA

>  <compound>
NC(=O)CN1CC[C@H](CNc2ncnc(N3CCOC[C@@H]3c3ccc(C(F)(F)F)cn3)c2F)[C@@H](F)C1 (single isomer, unassigned)

>  <units-text>
nM

>  <IC50>
93

$$$$
>  <compound>
NC(=O)CN1CCC(CNc2ncnc(N3CCOC[C@@H]3c3ccc(C(F)(F)F)cc3)c2F)CC1

>  <units-text>
nM

>  <IC50>
161

$$$$
>  <compound>
NC(=O)CN1CCC(CNc2ncnc(N3CCOC[C@@H]3c3ccc(C(F)(F)F)cn3)c2F)C(F)(F)C1 (single isomer, unassigned)

>  <units-text>
nM

>  <IC50>
82

$$$$

* * *

tested-on: RORγ (Homo sapiens)
Construct: Gal4 (galactose-responsive transcription factor); expressed in transfected cells; host or cells: HEK293
measurement-notes: RORγ Reporter Assay (Gal4)
Type: cell-based
conditions: HEK293 co-transfected with RORγ LBD-Gal4 and luciferase reporter, 24 h incubation, absolute IC50; read-out: IC50
pIC50: −log10 of the molar value.
Each entry below carries its reported pIC50.

>  <compound>
NC(=O)CN1CC[C@H](CNc2ncnc(N3CCOC[C@@H]3c3ccc(C(F)(F)F)cn3)c2F)[C@H](F)C1 (single isomer, unassigned) [Example H6-12-2]

>  <pIC50>
6.04

$$$$
>  <compound>
NC(=O)CN1CC[C@H](CNc2ncnc(N3CC(F)(F)C[C@@H]3c3ccc(C(F)(F)F)cn3)c2F)[C@@H](O)C1 (mixture of isomers)

>  <pIC50>
6.31

$$$$
>  <compound>
NC(=O)CN1CC[C@H](CNc2ncnc(N3CC(F)(F)C[C@@H]3c3ccc(C(F)(F)F)cc3)c2F)[C@@H](F)C1 (single isomer, unassigned) [Example H6-16-1]

>  <pIC50>
7.85

$$$$
>  <compound>
C[C@@H]1COC[C@H](c2ccc(C(F)(F)F)cc2)N1c1ncnc(NC[C@@H]2CCN(CC(N)=O)C[C@H]2O)c1F (single isomer, unassigned) [Example H6-22-1]

>  <pIC50>
7.36

$$$$
>  <compound>
NC(=O)CN1CC[C@H](CNc2ncnc(N3CCOC[C@@H]3c3ccc(C(F)(F)F)cn3)c2F)[C@H](F)C1 (single isomer, unassigned) [Example H6-12-1]

>  <pIC50>
6.26

$$$$

* * *

Each entry below carries its reported IC50.
tested-on: RORγ (Homo sapiens, UniProt P51449)
Construct: Gal4 (galactose-responsive transcription factor); expressed in transfected cells; host or cells: HEK293
Sequence (P51449 269-508 limits assumed): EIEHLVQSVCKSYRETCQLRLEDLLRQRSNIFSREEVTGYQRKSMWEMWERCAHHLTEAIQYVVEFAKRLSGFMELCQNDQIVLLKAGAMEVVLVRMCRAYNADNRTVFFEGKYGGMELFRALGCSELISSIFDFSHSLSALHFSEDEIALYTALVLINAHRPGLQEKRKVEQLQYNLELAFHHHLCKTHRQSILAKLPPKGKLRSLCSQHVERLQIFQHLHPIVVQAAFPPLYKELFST
measurement-notes: RORγ Reporter Assay (Gal4)
Type: cell-based
conditions: HEK293 co-transfected with RORγ LBD-Gal4 and luciferase reporter, 24 h incubation, absolute IC50; read-out: IC50
observable: IC50 (nM)

>  <compound>
NC(=O)CN1CC[C@H](CNc2ncnc(N3CC(F)(F)C[C@@H]3c3ccc(C(F)(F)F)cc3)c2F)[C@@H](O)C1 (single isomer, unassigned) [Example H6-17-1]

>  <observable>
IC50

>  <numeric-value>
26

$$$$
>  <compound>
CC(C(N)=O)N1CCC(CNc2ncnc(N3CCOC[C@@H]3c3ccc(C(F)(F)F)cn3)c2F)CC1 (stereo partly shown) [Example H6-1]

>  <observable>
IC50

>  <numeric-value>
910

$$$$
>  <compound>
NC(=O)CN1CCC(CNc2ncnc(N3CCOC[C@@H]3c3ccc(C(F)(F)F)cn3)c2F)C(F)(F)C1 (single isomer, unassigned) [Example H6-11-1]

>  <observable>
IC50

>  <numeric-value>
360

$$$$
>  <compound>
NC(=O)CN1CCC(CNc2ncnc(N3CCOC[C@@H]3c3ccc(C(F)(F)F)cn3)c2F)CC1 [Example H6-2]

>  <observable>
IC50

>  <numeric-value>
330

$$$$
>  <compound>
NC(=O)CN1CCC(CNc2ncnc(N3C[C@H](F)C[C@@H]3c3ccc(C(F)(F)F)cc3)c2F)CC1 (racemic) [Example H6-27]

>  <observable>
IC50

>  <numeric-value>
210

$$$$
>  <compound>
NC(=O)CN1CCC(CNc2ncnc(N3CCOC[C@@H]3c3ccc(C(F)(F)F)cn3)c2F)C(F)(F)C1 (single isomer, unassigned) [Example H6-11-2]

>  <observable>
IC50

>  <numeric-value>
66

$$$$
>  <compound>
NC(=O)CN1CCC(F)(CNc2ncnc(N3CCOC[C@@H]3c3ccc(C(F)(F)F)cn3)c2F)CC1 [Example H6-8]

>  <observable>
IC50

>  <numeric-value>
160

$$$$
>  <compound>
NC(=O)CN1CCC(CNc2ncnc(N3CC(F)(F)C[C@@H]3c3ccc(C(F)(F)F)cc3)c2F)C(F)(F)C1 (single isomer, unassigned) [Example H6-15-2]

>  <observable>
IC50

>  <numeric-value>
25

$$$$
>  <compound>
NC(=O)CN1CC[C@H](CNc2ncnc(N3CC(F)(F)C[C@@H]3c3ccc(C(F)(F)F)cc3)c2F)[C@@H](F)C1 (single isomer, unassigned) [Example H6-16-2]

>  <observable>
IC50

>  <numeric-value>
10

$$$$
>  <compound>
NC(=O)CN1CCC(CNc2ncnc(N3CCOC[C@@H]3c3ccc(C(F)(F)F)cc3)c2F)CC1 [Example H6-5]

>  <observable>
IC50

>  <numeric-value>
70

$$$$
